Ref: patent US9862716B2

biological target: human TrkA receptor (Homo sapiens, UniProt P04629); assay: DiscoverX PathHunter TrkA functional assay (NGF-stimulated U2OS cells); details: U2OS cells expressing human TrkA-PK, Shc1-EA and p75NTR; compound 1 h, then NGF at ~80% of maximal response for 3 h; luminescence
Sequence (P04629 33-796): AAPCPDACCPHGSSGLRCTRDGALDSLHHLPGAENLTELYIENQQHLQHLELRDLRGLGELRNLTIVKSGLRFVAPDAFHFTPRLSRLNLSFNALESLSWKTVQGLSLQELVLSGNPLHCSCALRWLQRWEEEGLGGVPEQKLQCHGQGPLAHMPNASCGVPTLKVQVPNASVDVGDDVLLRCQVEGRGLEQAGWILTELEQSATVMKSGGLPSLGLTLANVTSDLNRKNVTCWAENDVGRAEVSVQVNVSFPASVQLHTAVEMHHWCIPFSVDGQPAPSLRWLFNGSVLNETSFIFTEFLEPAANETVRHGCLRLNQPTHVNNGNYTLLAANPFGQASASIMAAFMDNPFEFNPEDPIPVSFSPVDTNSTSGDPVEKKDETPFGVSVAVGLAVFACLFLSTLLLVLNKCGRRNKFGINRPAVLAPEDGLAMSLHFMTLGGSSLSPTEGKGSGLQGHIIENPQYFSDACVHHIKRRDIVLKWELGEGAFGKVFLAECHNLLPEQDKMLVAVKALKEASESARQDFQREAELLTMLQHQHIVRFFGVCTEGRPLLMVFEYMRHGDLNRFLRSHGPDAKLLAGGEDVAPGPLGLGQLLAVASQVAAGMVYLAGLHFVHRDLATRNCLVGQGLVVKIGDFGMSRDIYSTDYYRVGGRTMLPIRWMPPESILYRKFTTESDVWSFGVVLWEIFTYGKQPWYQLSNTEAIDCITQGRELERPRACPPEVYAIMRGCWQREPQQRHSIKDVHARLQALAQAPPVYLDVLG
ENDPOINT_LABEL: IC50 (nM)
Response body: numeric value in nM, unit text excluded.

Q: For the molecule CC(C)(O)c1ccn2c(NC(=O)c3cc(-c4ncccn4)c(C(F)(F)F)cc3F)c(-c3ccccc3)nc2c1 , what IC50 is on record?
Result: 1.1

Q: For the molecule Cn1ccc(-c2cc(C(=O)Nc3c(-c4ccccc4)nc4cc(C(O)C(F)(F)F)ccn34)ccc2C(F)(F)F)n1 (single isomer, unassigned) [Compound 63] , what IC50 is on record?
Result: 1.6

Q: For the molecule Cn1ccc(-c2cc(C(=O)Nc3c(-c4ccccc4)[nH]c4ccccc34)c(F)cc2C(F)(F)F)n1 , what IC50 is on record?
Result: 4.1
